- targetEntity: 5-hydroxytryptamine receptor 4 (Homo sapiens)
- protocolSummary: Agonist activity at human 5HT4e receptor expressed in C6 cells assessed as cAMP accumulation relative to 5HT
- Format: functional, cell-based
- Parameters: concentration or dose not given beside the values
reportedProperty: Activity (%)
Field: numeric (%). Do not append units.

Example cases with answers are listed next.
COc1cc(N)c(Cl)cc1C(=O)OCCN1CCC(CNC(=O)CCCN(CCCc2cccc(CCCN(CCCC(=O)NCC3CCN(CCOC(=O)c4cc(Cl)c(N)cc4OC)CC3)C(=O)OC(C)(C)C)c2)C(=O)OC(C)(C)C)CC1 : 5
COc1cc(N)c(Cl)cc1C(=O)OCCN1CCC(CNC(=O)CCCN(CCCc2ccc(CCCN(CCCC(=O)NCC3CCN(CCOC(=O)c4cc(Cl)c(N)cc4OC)CC3)C(=O)OC(C)(C)C)cc2)C(=O)OC(C)(C)C)CC1 : 9
COc1cc(N)c(Cl)cc1C(=O)OCCN1CCC(NC(=O)CCCN(CC#Cc2cccc(C#CCN(CCCC(=O)NC3CCN(CCOC(=O)c4cc(Cl)c(N)cc4OC)CC3)C(=O)OC(C)(C)C)c2)C(=O)OC(C)(C)C)CC1 : 8
COc1cc(N)c(Cl)cc1C(=O)OCCN1CCC(NC(=O)CCCN(CCCc2ccc(CCCN(CCCC(=O)NC3CCCCC3)C(=O)OC(C)(C)C)cc2)C(=O)OC(C)(C)C)CC1 : 17
COc1cc(N)c(Cl)cc1C(=O)OCCN1CCC(NC(=O)CCCCCCCCCCNc2nc(NCCCCCCCCCCC(=O)NC3CCN(CCOC(=O)c4cc(Cl)c(N)cc4OC)CC3)nc(NCc3ccccc3)n2)CC1 : 12

Entry under review: `COc1cc(N)c(Cl)cc1C(=O)OCCN1CCC(CCNC(=O)CCCCCCCCCCC(=O)NCCC2CCN(CCOC(=O)c3cc(Cl)c(N)cc3OC)CC2)CC1` . Reported Activity? 6

---

- targetEntity: 5-hydroxytryptamine receptor 4 (Homo sapiens, UniProt Q13639)
- Sequence (Q13639 whole entry): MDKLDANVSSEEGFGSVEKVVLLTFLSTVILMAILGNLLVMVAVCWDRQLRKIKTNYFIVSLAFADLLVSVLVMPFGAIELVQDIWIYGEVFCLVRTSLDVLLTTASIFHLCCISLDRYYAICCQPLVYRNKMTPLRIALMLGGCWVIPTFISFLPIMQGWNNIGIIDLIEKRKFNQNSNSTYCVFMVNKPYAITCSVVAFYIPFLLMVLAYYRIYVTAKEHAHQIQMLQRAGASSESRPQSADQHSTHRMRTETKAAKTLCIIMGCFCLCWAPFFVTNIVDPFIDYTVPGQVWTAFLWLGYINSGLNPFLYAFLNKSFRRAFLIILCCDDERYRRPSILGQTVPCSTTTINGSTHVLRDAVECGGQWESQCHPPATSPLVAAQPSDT
- protocolSummary: Agonist activity at human 5HT4e receptor expressed in C6 cells assessed as cAMP accumulation relative to 5HT
- Assay type: functional, cell-based
- Set-up: concentration or dose not given beside the values
// assign 1.0 if Activity falls strictly below 10%, else 0.0 (ties count as 0.0)

# count of solved cases: 9
COc1cc(N)c(Cl)cc1C(=O)OCCN1CCC(CNC(=O)CN(CC#Cc2ccc(C#CCN(CC(=O)NCC3CCN(CCOC(=O)c4cc(Cl)c(N)cc4OC)CC3)C(=O)OC(C)(C)C)cc2)C(=O)OC(C)(C)C)CC1 : 0.0
Cn1cc(C(=O)OCC2CCN(CCNS(C)(=O)=O)CC2)c2ccccc21 : 1.0
COc1cc(N)c(Cl)cc1C(=O)OCCN1CCC(CNC(=O)CCCN(CC#Cc2ccc(C#CCN(CCCC(=O)NCC3CCN(CCOC(=O)c4cc(Cl)c(N)cc4OC)CC3)C(=O)OC(C)(C)C)cc2)C(=O)OC(C)(C)C)CC1 : 1.0
COc1cc(N)c(Cl)cc1C(=O)OCCN1CCC(CNC(=O)CN(CCCc2ccc(CCCN(CC(=O)NCC3CCN(CCOC(=O)c4cc(Cl)c(N)cc4OC)CC3)C(=O)OC(C)(C)C)cc2)C(=O)OC(C)(C)C)CC1 : 0.0
COc1cc(N)c(Cl)cc1C(=O)OCCN1CCCCC1 : 0.0
COc1cc(N)c(Cl)cc1C(=O)OCCN1CCC(NC(=O)CCCN(CC#Cc2ccc(C#CCN(CCCC(=O)NC3CCN(CCOC(=O)c4cc(Cl)c(N)cc4OC)CC3)C(=O)OC(C)(C)C)cc2)C(=O)OC(C)(C)C)CC1 : 0.0
COc1cc(N)c(Cl)cc1C(=O)OCCN1CCC(NC(=O)CCCCCCCCCCNC(=O)C2CCN(CCOC(=O)c3cc(Cl)c(N)cc3OC)CC2)CC1 : 1.0
COc1cc(N)c(Cl)cc1C(=O)OCCN1CCC(CNC(=O)CCCN(CC#Cc2cccc(C#CCN(CCCC(=O)NCC3CCN(CCOC(=O)c4cc(Cl)c(N)cc4OC)CC3)C(=O)OC(C)(C)C)c2)C(=O)OC(C)(C)C)CC1 : 1.0
COc1cc(N)c(Cl)cc1C(=O)OCCN1CCC(NC(=O)CCCN(CCCc2ccc(CCCN(CCCC(=O)NC3CCN(CCOC(=O)c4cc(Cl)c(N)cc4OC)CC3)C(=O)OC(C)(C)C)cc2)C(=O)OC(C)(C)C)CC1 : 0.0

Find out if reported Activity for `COc1cc(N)c(Cl)cc1C(=O)OCCN1CCC(NC(=O)CCCCCNC(=O)C2CCN(CCOC(=O)c3cc(Cl)c(N)cc3OC)CC2)CC1` is less than 10% 0.0
